Test system: HOP-62 multicell spheroids with HUVEC/MSC, viability
Procedure text: Anticancer human tumor HOP-62 cell line growth inhibition [KRAS2]; active = viability on the fitted dose curve at most 10% of control; inactive = the rest;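 note: viability read after a week of compound exposure; 100% = DMSO vehicle-treated spheroids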
Condition context: second compound 3.16 µM; first compound 0.01 µM
Possible outcomes: active, inactive

Compound	Group
CCN1CCN(Cc2ccc(Nc3ncc(F)c(-c4cc(F)c5nc(C)n(C(C)C)c5c4)n3)nc2)CC1 + CC1OCC2(CCN(c3cnc(Sc4ccnc(N)c4Cl)c(N)n3)CC2)C1N	inactive
CC1COCCN1c1cc(-c2ccnn2C)c2ccnc(-c3ccn[nH]3)c2n1 (stereo not drawn) + CC1OCC2(CCN(c3cnc(Sc4ccnc(N)c4Cl)c(N)n3)CC2)C1N	inactive
CCN1CCN(Cc2ccc(Nc3ncc(F)c(-c4cc(F)c5nc(C)n(C(C)C)c5c4)n3)nc2)CC1 + CNCc1ccccc1-c1csc(C(C)Nc2nc(C)nc3cc(OC)c(OC)cc23)c1	active

----------
Tested on: HOP-62 multicell spheroids with HUVEC/MSC, viability
Procedure text: Anticancer human tumor HOP-62 cell line growth inhibition [KRAS2]; active = viability on the fitted dose curve at most 10% of control; inactive = the rest;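 note: viability read after a week of compound exposure; 100% = DMSO vehicle-treated spheroids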
Condition context: second compound 3.16 µM; first compound 0.316 µM
Possible outcomes: YES = active, NO = inactive

Compound	Group
CC(C)NCC(C(=O)N1CCN(c2ncnc3c2C(C)CC3O)CC1)c1ccc(Cl)cc1 (stereo not drawn) + CC1OCC2(CCN(c3cnc(Sc4ccnc(N)c4Cl)c(N)n3)CC2)C1N	NO
CC1OCC2(CCN(c3cnc(Sc4ccnc(N)c4Cl)c(N)n3)CC2)C1N (stereo not drawn) + C=CC(=O)N1CCN(c2nc(OCC3CCCN3C)nc3c2CCN(c2cccc4cccc(C)c24)C3)CC1CC#N	YES
CC(=O)OC12COC1CC(O)C1(C)C(=O)C(O)C3=C(C)C(OC(=O)C(O)C(NC(=O)OC(C)(C)C)c4ccccc4)CC(O)(C(OC(=O)c4ccccc4)C21)C3(C)C (stereo not drawn) + CNCc1ccccc1-c1csc(C(C)Nc2nc(C)nc3cc(OC)c(OC)cc23)c1	YES

----------
Test system: HOP-62 multicell spheroids with HUVEC/MSC, viability
Procedure text: Anticancer human tumor HOP-62 cell line growth inhibition [KRAS2];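 note: viability read after a week of compound exposure; 100% = DMSO vehicle-treated spheroids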
Condition context: second compound 3.16 µM; first compound 0.316 µM; active compounds read low
viability, T/C less than 20% is y; viability, T/C greater than or equal to 20% is n.

Compound	Group
CC1COCCN1c1cc(-c2ccnn2C)c2ccnc(-c3ccn[nH]3)c2n1 (stereo not given) + C=CC(=O)N1CCN(c2nc(OCC3CCCN3C)nc3c2CCN(c2cccc4cccc(C)c24)C3)CC1CC#N	y
COC(=O)c1ccc2c(C(=Nc3ccc(N(C)C(=O)CN4CCN(C)CC4)cc3)c3ccccc3)c(O)[nH]c2c1 + CNCc1ccccc1-c1csc(C(C)Nc2nc(C)nc3cc(OC)c(OC)cc23)c1	y
O=C(c1cc(Cc2n[nH]c(=O)c3ccccc23)ccc1F)N1CCN(C(=O)C2CC2)CC1 + COc1cc2nc(C)nc(NC(C)c3cc(N)cc(C(F)(F)F)c3)c2cc1OC1CCOC1	n
CC(C)NCC(C(=O)N1CCN(c2ncnc3c2C(C)CC3O)CC1)c1ccc(Cl)cc1 (stereo not given) + C=CC(=O)N1CCN(c2nc(=O)n(-c3c(C)ccnc3C(C)C)c3nc(-c4c(O)cccc4F)c(F)cc23)C(C)C1	n

----------
System: HOP-62 multicell spheroids with HUVEC/MSC, viability
Procedure text: Anticancer human tumor HOP-62 cell line growth inhibition [KRAS2];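 note: viability read after a week of compound exposure; 100% = DMSO vehicle-treated spheroids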
Condition context: second compound 0.316 µM; first compound 0.316 µM; active compounds read low
Quantity: viability, T/C (%)

Molecule	Quantity	Val
O=C(c1cc(Cc2n[nH]c(=O)c3ccccc23)ccc1F)N1CCN(C(=O)C2CC2)CC1 + CNCc1ccccc1-c1csc(C(C)Nc2nc(C)nc3cc(OC)c(OC)cc23)c1	viability, T/C	83.2
CC1OCC2(CCN(c3cnc(Sc4ccnc(N)c4Cl)c(N)n3)CC2)C1N (stereo not given) + CNCc1ccccc1-c1csc(C(C)Nc2nc(C)nc3cc(OC)c(OC)cc23)c1	viability, T/C	69.2
CC(=O)OC12COC1CC(O)C1(C)C(=O)C(O)C3=C(C)C(OC(=O)C(O)C(NC(=O)OC(C)(C)C)c4ccccc4)CC(O)(C(OC(=O)c4ccccc4)C21)C3(C)C (stereo not given) + COc1cc2nc(C)nc(NC(C)c3cc(N)cc(C(F)(F)F)c3)c2cc1OC1CCOC1	viability, T/C	27.5
CC1COCCN1c1cc(-c2ccnn2C)c2ccnc(-c3ccn[nH]3)c2n1 (stereo not given) + COc1cc2nc(C)nc(NC(C)c3cc(N)cc(C(F)(F)F)c3)c2cc1OC1CCOC1	viability, T/C	16.5
CCNC(=O)CC1N=C(c2ccc(Cl)cc2)c2cc(OC)ccc2-n2c(C)nnc21 (stereo not given) + C=CC(=O)N1CCN(c2nc(OCC3CCCN3C)nc3c2CCN(c2cccc4cccc(C)c24)C3)CC1CC#N	viability, T/C	53.5
COc1cc(Nc2ncc3c(n2)-c2ccc(Cl)cc2C(c2c(F)cccc2OC)=NC3)ccc1C(=O)O + CC1OCC2(CCN(c3cnc(Sc4ccnc(N)c4Cl)c(N)n3)CC2)C1N	viability, T/C	38.5
CC(C)NCC(C(=O)N1CCN(c2ncnc3c2C(C)CC3O)CC1)c1ccc(Cl)cc1 (stereo not given) + COc1cc2nc(C)nc(NC(C)c3cc(N)cc(C(F)(F)F)c3)c2cc1OC1CCOC1	viability, T/C	58.7
O=C(c1cc(Cc2n[nH]c(=O)c3ccccc23)ccc1F)N1CCN(C(=O)C2CC2)CC1 + CC1OCC2(CCN(c3cnc(Sc4ccnc(N)c4Cl)c(N)n3)CC2)C1N	viability, T/C	78.6
Cn1nccc1Nc1nccc(-c2cc3c(s2)C(C)(C)N(CCN2CCOCC2)C3=O)n1 + C=CC(=O)N1CCN(c2nc(OCC3CCCN3C)nc3c2CCN(c2cccc4cccc(C)c24)C3)CC1CC#N	viability, T/C	18.1
CC(=O)OC12COC1CC(O)C1(C)C(=O)C(O)C3=C(C)C(OC(=O)C(O)C(NC(=O)OC(C)(C)C)c4ccccc4)CC(O)(C(OC(=O)c4ccccc4)C21)C3(C)C (stereo not given) + C=CC(=O)N1CCN(c2nc(OCC3CCCN3C)nc3c2CCN(c2cccc4cccc(C)c24)C3)CC1CC#N	viability, T/C	16.9
CC(=O)OC12COC1CC(O)C1(C)C(=O)C(O)C3=C(C)C(OC(=O)C(O)C(NC(=O)OC(C)(C)C)c4ccccc4)CC(O)(C(OC(=O)c4ccccc4)C21)C3(C)C (stereo not given) + CNCc1ccccc1-c1csc(C(C)Nc2nc(C)nc3cc(OC)c(OC)cc23)c1	viability, T/C	31.7
CC(C)NCC(C(=O)N1CCN(c2ncnc3c2C(C)CC3O)CC1)c1ccc(Cl)cc1 (stereo not given) + CNCc1ccccc1-c1csc(C(C)Nc2nc(C)nc3cc(OC)c(OC)cc23)c1	viability, T/C	73.7
CC1OCC2(CCN(c3cnc(Sc4ccnc(N)c4Cl)c(N)n3)CC2)C1N (stereo not given) + C=CC(=O)N1CCN(c2nc(=O)n(-c3c(C)ccnc3C(C)C)c3nc(-c4c(O)cccc4F)c(F)cc23)C(C)C1	viability, T/C	28.4
COC(=O)c1ccc2c(C(=Nc3ccc(N(C)C(=O)CN4CCN(C)CC4)cc3)c3ccccc3)c(O)[nH]c2c1 + C=CC(=O)N1CCN(c2nc(=O)n(-c3c(C)ccnc3C(C)C)c3nc(-c4c(O)cccc4F)c(F)cc23)C(C)C1	viability, T/C	26.8
COc1cc2nccc(Oc3ccc(NC(=O)C4(C(=O)Nc5ccc(F)cc5)CC4)cc3)c2cc1OC + C=CC(=O)N1CCN(c2nc(OCC3CCCN3C)nc3c2CCN(c2cccc4cccc(C)c24)C3)CC1CC#N	viability, T/C	47.9
COc1cc(Nc2ncc3c(n2)-c2ccc(Cl)cc2C(c2c(F)cccc2OC)=NC3)ccc1C(=O)O + C=CC(=O)N1CCN(c2nc(OCC3CCCN3C)nc3c2CCN(c2cccc4cccc(C)c24)C3)CC1CC#N	viability, T/C	17
COC(=O)c1ccc2c(C(=Nc3ccc(N(C)C(=O)CN4CCN(C)CC4)cc3)c3ccccc3)c(O)[nH]c2c1 + C=CC(=O)N1CCN(c2nc(OCC3CCCN3C)nc3c2CCN(c2cccc4cccc(C)c24)C3)CC1CC#N	viability, T/C	24.1
CC1OCC2(CCN(c3cnc(Sc4ccnc(N)c4Cl)c(N)n3)CC2)C1N (stereo not given) + C=CC(=O)N1CCN(c2nc(OCC3CCCN3C)nc3c2CCN(c2cccc4cccc(C)c24)C3)CC1CC#N	viability, T/C	13.9
CC1(C)CCC(CN2CCN(c3ccc(C(=O)NS(=O)(=O)c4ccc(NCC5CCOCC5)c([N+](=O)[O-])c4)c(Oc4cnc5[nH]ccc5c4)c3)CC2)=C(c2ccc(Cl)cc2)C1 + COc1cc2nc(C)nc(NC(C)c3cc(N)cc(C(F)(F)F)c3)c2cc1OC1CCOC1	viability, T/C	78.2
CCNC(=O)CC1N=C(c2ccc(Cl)cc2)c2cc(OC)ccc2-n2c(C)nnc21 (stereo not given) + COc1cc2nc(C)nc(NC(C)c3cc(N)cc(C(F)(F)F)c3)c2cc1OC1CCOC1	viability, T/C	37.8
